Entry source: paper PMC9466612

assay system: hCA I (Homo sapiens, UniProt P00915)
Construct: gene CA1; cytosolic isoform
Sequence (P00915 2-261): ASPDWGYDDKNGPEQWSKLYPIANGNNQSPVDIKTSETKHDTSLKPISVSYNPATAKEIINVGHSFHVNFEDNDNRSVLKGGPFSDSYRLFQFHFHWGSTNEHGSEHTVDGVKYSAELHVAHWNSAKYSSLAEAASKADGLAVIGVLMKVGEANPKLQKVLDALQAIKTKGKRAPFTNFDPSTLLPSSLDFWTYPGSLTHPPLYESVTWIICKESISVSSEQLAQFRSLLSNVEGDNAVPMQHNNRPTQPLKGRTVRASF
experiment summary: stopped-flow CO2 hydrase assay
Type: biochemical
Listed next: entries and their corresponding Ki.
assay endpoint: Ki

molecule: O=C(O)c1cccc(NC=CC(=O)c2ccc3ccccc3c2)c1 [5k]
assay system: hCA I (Homo sapiens, UniProt P00915)
assay endpoint: Ki
observed result: > 100 µM
--
molecule: O=C(O)c1ccc(NC=CC(=O)c2ccccc2)cc1 [5l]
assay system: hCA I (Homo sapiens, UniProt P00915)
assay endpoint: Ki
observed result: 75.3 µM
--
molecule: O=C(O)c1cccc(NCCC(=O)c2ccccc2)c1 [7a]
assay system: hCA I (Homo sapiens, UniProt P00915)
assay endpoint: Ki
observed result: > 100 µM
--
molecule: O=C(O)CNC(=O)c1ccc(NC=CC(=O)c2ccccc2)cc1 [12a]
assay system: hCA I (Homo sapiens, UniProt P00915)
assay endpoint: Ki
observed result: > 100 µM
